details: in n-propanol, 308.15 K

{"smiles.structure": "O=C(O)[C@H]1O[C@@H](Oc2cc3oc(-c4ccccc4)cc(=O)c3c(O)c2O)[C@H](O)[C@@H](O)[C@@H]1O", "solubility (mole fraction)": 0.00363}

====

conditions: in water, 298.15 K
experimental.readout: solubility (mole fraction)

{"smiles.structure": "O=C(O)[C@H]1O[C@@H](Oc2cc3oc(-c4ccccc4)cc(=O)c3c(O)c2O)[C@H](O)[C@@H](O)[C@@H]1O", "readout.number": "7.49e-06"}

====

conditions: in n-propanol, 288.15 K
experimental.readout: solubility (mole fraction)

{"smiles.structure": "O=C(O)[C@H]1O[C@@H](Oc2cc3oc(-c4ccccc4)cc(=O)c3c(O)c2O)[C@H](O)[C@@H](O)[C@@H]1O", "readout.number": 0.00133}

====

settings: in methanol, 278.15 K

{"smiles.structure": "O=C(O)[C@H]1O[C@@H](Oc2cc3oc(-c4ccccc4)cc(=O)c3c(O)c2O)[C@H](O)[C@@H](O)[C@@H]1O", "solubility (mole fraction)": "8.11e-05"}

====

details: in water, 283.15 K
experimental.readout: solubility (mole fraction)

{"smiles.structure": "O=C(O)[C@H]1O[C@@H](Oc2cc3oc(-c4ccccc4)cc(=O)c3c(O)c2O)[C@H](O)[C@@H](O)[C@@H]1O", "readout.number": "3.13e-06"}

====

settings: in water, 308.15 K

{"smiles.structure": "O=C(O)[C@H]1O[C@@H](Oc2cc3oc(-c4ccccc4)cc(=O)c3c(O)c2O)[C@H](O)[C@@H](O)[C@@H]1O", "solubility (mole fraction)": "1.27e-05"}

====

details: in methanol, 298.15 K
experimental.readout: solubility (mole fraction)

{"smiles.structure": "O=C(O)[C@H]1O[C@@H](Oc2cc3oc(-c4ccccc4)cc(=O)c3c(O)c2O)[C@H](O)[C@@H](O)[C@@H]1O", "readout.number": 0.000127}

====

conditions: in water, 288.15 K
experimental.readout: solubility (mole fraction)

{"smiles.structure": "O=C(O)[C@H]1O[C@@H](Oc2cc3oc(-c4ccccc4)cc(=O)c3c(O)c2O)[C@H](O)[C@@H](O)[C@@H]1O", "result": "4.35e-06"}

====

conditions: in methanol, 288.15 K

{"smiles.structure": "O=C(O)[C@H]1O[C@@H](Oc2cc3oc(-c4ccccc4)cc(=O)c3c(O)c2O)[C@H](O)[C@@H](O)[C@@H]1O", "solubility (mole fraction)": 0.000101}

====

conditions: in n-propanol, 283.15 K

{"smiles.structure": "O=C(O)[C@H]1O[C@@H](Oc2cc3oc(-c4ccccc4)cc(=O)c3c(O)c2O)[C@H](O)[C@@H](O)[C@@H]1O", "solubility (mole fraction)": 0.00101}

====

details: in n-propanol, 318.15 K

{"smiles.structure": "O=C(O)[C@H]1O[C@@H](Oc2cc3oc(-c4ccccc4)cc(=O)c3c(O)c2O)[C@H](O)[C@@H](O)[C@@H]1O", "solubility (mole fraction)": 0.00551}

====

details: in isopropanol, 303.15 K

{"smiles.structure": "O=C(O)[C@H]1O[C@@H](Oc2cc3oc(-c4ccccc4)cc(=O)c3c(O)c2O)[C@H](O)[C@@H](O)[C@@H]1O", "solubility (mole fraction)": 0.00246}

====

conditions: in ethanol, 283.15 K

{"smiles.structure": "O=C(O)[C@H]1O[C@@H](Oc2cc3oc(-c4ccccc4)cc(=O)c3c(O)c2O)[C@H](O)[C@@H](O)[C@@H]1O", "solubility (mole fraction)": 0.000176}

====

conditions: in ethanol, 303.15 K

{"smiles.structure": "O=C(O)[C@H]1O[C@@H](Oc2cc3oc(-c4ccccc4)cc(=O)c3c(O)c2O)[C@H](O)[C@@H](O)[C@@H]1O", "solubility (mole fraction)": 0.000196}

====

details: in water, 303.15 K

{"smiles.structure": "O=C(O)[C@H]1O[C@@H](Oc2cc3oc(-c4ccccc4)cc(=O)c3c(O)c2O)[C@H](O)[C@@H](O)[C@@H]1O", "solubility (mole fraction)": "9.78e-06"}

====

settings: in isopropanol, 308.15 K

{"smiles.structure": "O=C(O)[C@H]1O[C@@H](Oc2cc3oc(-c4ccccc4)cc(=O)c3c(O)c2O)[C@H](O)[C@@H](O)[C@@H]1O", "solubility (mole fraction)": 0.00314}

====

details: in water, 278.15 K
experimental.readout: solubility (mole fraction)

{"smiles.structure": "O=C(O)[C@H]1O[C@@H](Oc2cc3oc(-c4ccccc4)cc(=O)c3c(O)c2O)[C@H](O)[C@@H](O)[C@@H]1O", "readout.number": "2.38e-06"}

====

details: in n-propanol, 293.15 K

{"smiles.structure": "O=C(O)[C@H]1O[C@@H](Oc2cc3oc(-c4ccccc4)cc(=O)c3c(O)c2O)[C@H](O)[C@@H](O)[C@@H]1O", "solubility (mole fraction)": 0.00171}

====

conditions: in water, 293.15 K
experimental.readout: solubility (mole fraction)

{"smiles.structure": "O=C(O)[C@H]1O[C@@H](Oc2cc3oc(-c4ccccc4)cc(=O)c3c(O)c2O)[C@H](O)[C@@H](O)[C@@H]1O", "result": "5.8e-06"}

====

details: in water, 318.15 K
experimental.readout: solubility (mole fraction)

{"smiles.structure": "O=C(O)[C@H]1O[C@@H](Oc2cc3oc(-c4ccccc4)cc(=O)c3c(O)c2O)[C@H](O)[C@@H](O)[C@@H]1O", "readout.number": "2.03e-05"}

====

conditions: in isopropanol, 288.15 K
experimental.readout: solubility (mole fraction)

{"smiles.structure": "O=C(O)[C@H]1O[C@@H](Oc2cc3oc(-c4ccccc4)cc(=O)c3c(O)c2O)[C@H](O)[C@@H](O)[C@@H]1O", "result": 0.00112}

====

settings: in water, 313.15 K
experimental.readout: solubility (mole fraction)

{"smiles.structure": "O=C(O)[C@H]1O[C@@H](Oc2cc3oc(-c4ccccc4)cc(=O)c3c(O)c2O)[C@H](O)[C@@H](O)[C@@H]1O", "readout.number": "1.59e-05"}

====

details: in isopropanol, 318.15 K
experimental.readout: solubility (mole fraction)

{"smiles.structure": "O=C(O)[C@H]1O[C@@H](Oc2cc3oc(-c4ccccc4)cc(=O)c3c(O)c2O)[C@H](O)[C@@H](O)[C@@H]1O", "experimental.readout": "solubility (mole fraction)", "readout.number": 0.00472}

====

details: in ethanol, 308.15 K
experimental.readout: solubility (mole fraction)

{"smiles.structure": "O=C(O)[C@H]1O[C@@H](Oc2cc3oc(-c4ccccc4)cc(=O)c3c(O)c2O)[C@H](O)[C@@H](O)[C@@H]1O", "readout.number": 0.000202}

====

details: in methanol, 318.15 K
experimental.readout: solubility (mole fraction)

{"smiles.structure": "O=C(O)[C@H]1O[C@@H](Oc2cc3oc(-c4ccccc4)cc(=O)c3c(O)c2O)[C@H](O)[C@@H](O)[C@@H]1O", "readout.number": 0.000192}

====

settings: in methanol, 313.15 K
experimental.readout: solubility (mole fraction)

{"smiles.structure": "O=C(O)[C@H]1O[C@@H](Oc2cc3oc(-c4ccccc4)cc(=O)c3c(O)c2O)[C@H](O)[C@@H](O)[C@@H]1O", "readout.number": 0.000171}

====

settings: in n-propanol, 303.15 K
experimental.readout: solubility (mole fraction)

{"smiles.structure": "O=C(O)[C@H]1O[C@@H](Oc2cc3oc(-c4ccccc4)cc(=O)c3c(O)c2O)[C@H](O)[C@@H](O)[C@@H]1O", "readout.number": 0.00289}

====

settings: in ethanol, 298.15 K

{"smiles.structure": "O=C(O)[C@H]1O[C@@H](Oc2cc3oc(-c4ccccc4)cc(=O)c3c(O)c2O)[C@H](O)[C@@H](O)[C@@H]1O", "solubility (mole fraction)": 0.000191}

====

conditions: in isopropanol, 293.15 K

{"smiles.structure": "O=C(O)[C@H]1O[C@@H](Oc2cc3oc(-c4ccccc4)cc(=O)c3c(O)c2O)[C@H](O)[C@@H](O)[C@@H]1O", "solubility (mole fraction)": 0.00145}

====

settings: in isopropanol, 313.15 K

{"smiles.structure": "O=C(O)[C@H]1O[C@@H](Oc2cc3oc(-c4ccccc4)cc(=O)c3c(O)c2O)[C@H](O)[C@@H](O)[C@@H]1O", "solubility (mole fraction)": 0.00392}

====

settings: in methanol, 283.15 K
experimental.readout: solubility (mole fraction)

{"smiles.structure": "O=C(O)[C@H]1O[C@@H](Oc2cc3oc(-c4ccccc4)cc(=O)c3c(O)c2O)[C@H](O)[C@@H](O)[C@@H]1O", "experimental.readout": "solubility (mole fraction)", "readout.number": "9.11e-05"}
